Experiment: Oral bioavailability in beagle dog at 3 mg/kg by LC-MS/MS analysis
Type: ADME, organism-based, Canis lupus familiaris
Details: in vivo
READOUT: bioavailability (%)

ENTRY SMILES | DATA VALUE
C[C@@H]1c2nnn(-c3cnccn3)c2CCN1C(=O)c1cccc(C(F)(F)F)c1Cl | 65

###

This listing pairs compounds with measured Vd.
Test: Volume of distribution at steady state in Sprague-Dawley rat at 1 mg/kg, iv or 5 mg/kg, po by LC-MS/MS analysis
Type: ADME, organism-based
Conditions: in vivo, read-out: Vdss

COMPOUND | Vd
C[C@@H]1c2nnn(-c3ncccn3)c2CCN1C(=O)c1cccc(C(F)(F)F)c1Cl | 1.5 L/kg
C[C@@H]1c2nnn(-c3ncc(F)cn3)c2CCN1C(=O)c1cccc(C(F)(F)F)c1Cl [JNJ-54175446] | 2.1 L/kg
Cc1ccnc(-n2nnc3c2CCN(C(=O)c2cccc(C(F)(F)F)c2Cl)[C@@H]3C)n1 | 1.6 L/kg
C[C@@H]1c2nnn(-c3cnccn3)c2CCN1C(=O)c1cccc(C(F)(F)F)c1Cl | 3 L/kg

###

Test: Apparent permeability across basolateral to apical side in human Caco2 cells
Assay type: ADME, cell-based
Settings: Caco-2

ENTRY SMILES | Papp B→A / ×10⁻⁶ cm/s
C[C@@H]1c2nnn(-c3ncc(F)cn3)c2CCN1C(=O)c1cccc(C(F)(F)F)c1Cl | 48.8

###

pIC50 values recorded for Cytochrome P450 2C19 (Homo sapiens, UniProt P33261)
pIC50: −log10 of the molar value.
READOUT: pIC50

ENTRY SMILES | READOUT QUALIFIER | DATA VALUE
C[C@@H]1c2nnn(-c3cnccn3)c2CCN1C(=O)c1cccc(C(F)(F)F)c1Cl | = | 5.37
C[C@@H]1c2nnn(-c3cc(F)ccn3)c2CCN1C(=O)c1cccc(C(F)(F)F)c1Cl | = | 5.68
C[C@@H]1c2nnn(-c3ncccn3)c2CCN1C(=O)c1cccc(C(F)(F)F)c1Cl | < | 5.00

###

Assay: Protein binding in human plasma at 1 uM after 6 hrs by equilibrium dialysis method
Format: ADME, cell-free
Settings: read-out: PPB (converted)
READOUT: fraction unbound at 6 h, 1 µM

MOLECULE | DATA VALUE
C[C@@H]1c2nnn(-c3cnccn3)c2CCN1C(=O)c1cccc(C(F)(F)F)c1Cl | 0.084
C[C@@H]1c2nnn(-c3ncccn3)c2CCN1C(=O)c1cccc(C(F)(F)F)c1Cl | 0.084
Cc1ccnc(-n2nnc3c2CCN(C(=O)c2cccc(C(F)(F)F)c2Cl)[C@@H]3C)n1 | 0.085
C[C@@H]1c2nnn(-c3ncc(F)cn3)c2CCN1C(=O)c1cccc(C(F)(F)F)c1Cl [JNJ-54175446] | 0.112
C[C@@H]1c2nnn(-c3cc(F)ccn3)c2CCN1C(=O)c1cccc(C(F)(F)F)c1Cl | 0.024

###

Assay: Half life in Balb/c mouse at 1 mg/kg, iv by LC-MS/MS analysis
Assay type: ADME, organism-based
Settings: in vivo

ENTRY SMILES | half-life [min]
C[C@@H]1c2nnn(-c3ncccn3)c2CCN1C(=O)c1cccc(C(F)(F)F)c1Cl | 24

###

Test: Oral bioavailability in beagle dog at 2.5 mg/kg by LC-MS/MS analysis
Type: ADME, organism-based, Canis lupus familiaris
Conditions: beagle, in vivo
READOUT: bioavailability (%)

ENTRY SMILES | READOUT UNITS | DATA VALUE
Cc1ccnc(-n2nnc3c2CCN(C(=O)c2cccc(C(F)(F)F)c2Cl)[C@@H]3C)n1 | % | 86
C[C@@H]1c2nnn(-c3ncccn3)c2CCN1C(=O)c1cccc(C(F)(F)F)c1Cl | % | 70

###

Experiment: Clearance in Balb/c mouse at 1 mg/kg, iv or 5 mg/kg, po by LC-MS/MS analysis
Type: ADME, organism-based
Conditions: in vivo

ENTRY SMILES | READOUT UNITS | clearance
C[C@@H]1c2nnn(-c3ncccn3)c2CCN1C(=O)c1cccc(C(F)(F)F)c1Cl | mL/min/kg | 32

###

Experiment: Clearance in beagle dog at 1 mg/kg, iv or 3 mg/kg, po by LC-MS/MS analysis
Format: ADME, organism-based, Canis lupus familiaris
Conditions: in vivo
READOUT: clearance

ENTRY SMILES | DATA VALUE
C[C@@H]1c2nnn(-c3cnccn3)c2CCN1C(=O)c1cccc(C(F)(F)F)c1Cl | 33 mL/min/kg

###

Biological target: Voltage-gated inwardly rectifying potassium channel KCNH2 (Homo sapiens, UniProt Q12809)
Sequence (Q12809 whole entry): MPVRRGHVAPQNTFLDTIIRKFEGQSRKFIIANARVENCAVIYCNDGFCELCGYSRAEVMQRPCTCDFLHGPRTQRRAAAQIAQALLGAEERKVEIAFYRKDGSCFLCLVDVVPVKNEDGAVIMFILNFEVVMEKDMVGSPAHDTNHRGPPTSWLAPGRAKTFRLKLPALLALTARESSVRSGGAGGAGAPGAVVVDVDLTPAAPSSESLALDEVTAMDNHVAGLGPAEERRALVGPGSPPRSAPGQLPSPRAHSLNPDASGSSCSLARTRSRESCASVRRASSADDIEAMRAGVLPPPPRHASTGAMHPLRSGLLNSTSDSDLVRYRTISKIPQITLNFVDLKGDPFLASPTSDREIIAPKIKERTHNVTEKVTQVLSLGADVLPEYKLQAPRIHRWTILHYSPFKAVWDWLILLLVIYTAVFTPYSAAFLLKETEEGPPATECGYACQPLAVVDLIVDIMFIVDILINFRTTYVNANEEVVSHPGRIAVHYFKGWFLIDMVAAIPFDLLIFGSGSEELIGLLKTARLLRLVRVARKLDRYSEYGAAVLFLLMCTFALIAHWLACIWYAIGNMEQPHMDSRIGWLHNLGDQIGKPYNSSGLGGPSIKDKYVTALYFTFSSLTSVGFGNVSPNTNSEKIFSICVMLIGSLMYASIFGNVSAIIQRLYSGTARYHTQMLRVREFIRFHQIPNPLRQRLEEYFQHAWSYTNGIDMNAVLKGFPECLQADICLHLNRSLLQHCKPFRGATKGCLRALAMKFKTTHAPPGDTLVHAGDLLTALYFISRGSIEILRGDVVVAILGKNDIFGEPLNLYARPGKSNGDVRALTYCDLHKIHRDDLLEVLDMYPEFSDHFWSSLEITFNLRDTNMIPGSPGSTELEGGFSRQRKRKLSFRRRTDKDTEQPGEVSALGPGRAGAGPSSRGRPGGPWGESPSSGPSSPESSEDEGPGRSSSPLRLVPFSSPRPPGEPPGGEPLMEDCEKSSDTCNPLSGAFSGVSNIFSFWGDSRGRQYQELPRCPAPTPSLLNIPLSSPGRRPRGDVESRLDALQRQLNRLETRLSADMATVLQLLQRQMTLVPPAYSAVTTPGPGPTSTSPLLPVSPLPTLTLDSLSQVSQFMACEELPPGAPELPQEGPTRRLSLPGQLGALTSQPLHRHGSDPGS
Assay: Inhibition of [3H]-dofetilide binding to human ERG expressed in HEK293 cells
Format: cell-based
READOUT: IC50

ENTRY SMILES | READOUT | DATA VALUE
C[C@@H]1c2nnn(-c3cnccn3)c2CCN1C(=O)c1cccc(C(F)(F)F)c1Cl | IC50 | > 10 µM
C[C@@H]1c2nnn(-c3ncccn3)c2CCN1C(=O)c1cccc(C(F)(F)F)c1Cl | IC50 | > 10 µM
C[C@@H]1c2nnn(-c3cc(F)ccn3)c2CCN1C(=O)c1cccc(C(F)(F)F)c1Cl | IC50 | > 10 µM

###

Target: P2X purinoceptor (Macaca mulatta)
Sequence (G7N604 whole entry): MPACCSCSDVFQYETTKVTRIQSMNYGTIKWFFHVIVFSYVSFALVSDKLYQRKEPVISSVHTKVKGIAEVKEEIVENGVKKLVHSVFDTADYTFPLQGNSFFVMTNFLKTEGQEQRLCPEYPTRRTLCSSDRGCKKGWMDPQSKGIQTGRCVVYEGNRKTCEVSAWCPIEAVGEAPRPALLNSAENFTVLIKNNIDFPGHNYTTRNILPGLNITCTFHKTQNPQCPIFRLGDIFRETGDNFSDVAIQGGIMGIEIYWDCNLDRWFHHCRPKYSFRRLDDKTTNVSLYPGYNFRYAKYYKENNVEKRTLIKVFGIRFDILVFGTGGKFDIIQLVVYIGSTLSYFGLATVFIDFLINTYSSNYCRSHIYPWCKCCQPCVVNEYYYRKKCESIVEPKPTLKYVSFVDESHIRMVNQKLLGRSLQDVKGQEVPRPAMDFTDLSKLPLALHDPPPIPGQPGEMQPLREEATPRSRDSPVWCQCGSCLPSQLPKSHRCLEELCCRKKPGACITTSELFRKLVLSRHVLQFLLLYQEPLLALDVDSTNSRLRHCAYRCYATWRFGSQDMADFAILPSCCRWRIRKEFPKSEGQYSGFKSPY
Assay: Antagonist activity at macaque P2X7 assessed as inhibition of BzATP-induced calcium flux preincubated for 30 mins followed by BzATP addition measured over 180 secs by FLIPR assay
pIC50: −log10 of the molar value.

COMPOUND | pIC50
C[C@@H]1c2nnn(-c3ncc(F)cn3)c2CCN1C(=O)c1cccc(C(F)(F)F)c1Cl [JNJ-54175446] | 8.10

###

Experiment: Solubility of compound in phosphate buffer at pH 2 after 3 days
Type: physicochemical
The compounds listed here are annotated with their solubility at 72 h.

COMPOUND | READOUT QUALIFIER | solubility at 72 h, µM
C[C@@H]1c2nnn(-c3cc(F)ccn3)c2CCN1C(=O)c1cccc(C(F)(F)F)c1Cl | = | 4.8
C[C@@H]1c2nnn(-c3ncc(F)cn3)c2CCN1C(=O)c1cccc(C(F)(F)F)c1Cl [JNJ-54175446] | = | 38.7
C[C@@H]1c2nnn(-c3ncccn3)c2CCN1C(=O)c1cccc(C(F)(F)F)c1Cl | > | 400
C[C@@H]1c2nnn(-c3cnccn3)c2CCN1C(=O)c1cccc(C(F)(F)F)c1Cl | = | 48.2
Cc1ccnc(-n2nnc3c2CCN(C(=O)c2cccc(C(F)(F)F)c2Cl)[C@@H]3C)n1 | = | 328

###

Assay: Protein binding in mouse plasma at 1 uM after 6 hrs by equilibrium dialysis method
Type: ADME, cell-free
Details: read-out: PPB (converted)
READOUT: fraction unbound at 6 h, 1 µM

ENTRY SMILES | DATA VALUE
C[C@@H]1c2nnn(-c3cc(F)ccn3)c2CCN1C(=O)c1cccc(C(F)(F)F)c1Cl | 0.042
Cc1ccnc(-n2nnc3c2CCN(C(=O)c2cccc(C(F)(F)F)c2Cl)[C@@H]3C)n1 | 0.095
C[C@@H]1c2nnn(-c3cnccn3)c2CCN1C(=O)c1cccc(C(F)(F)F)c1Cl | 0.053
C[C@@H]1c2nnn(-c3ncc(F)cn3)c2CCN1C(=O)c1cccc(C(F)(F)F)c1Cl | 0.113
C[C@@H]1c2nnn(-c3ncccn3)c2CCN1C(=O)c1cccc(C(F)(F)F)c1Cl | 0.074

###

Assay: Oral bioavailability in Sprague-Dawley rat at 5 mg/kg by LC-MS/MS analysis
Assay type: ADME, organism-based
Conditions: in vivo
Items are presented alongside their recorded bioavailability.
READOUT: bioavailability (%)

MOLECULE | READOUT UNITS | DATA VALUE
C[C@@H]1c2nnn(-c3cnccn3)c2CCN1C(=O)c1cccc(C(F)(F)F)c1Cl | % | 77
C[C@@H]1c2nnn(-c3ncccn3)c2CCN1C(=O)c1cccc(C(F)(F)F)c1Cl | % | 92
Cc1ccnc(-n2nnc3c2CCN(C(=O)c2cccc(C(F)(F)F)c2Cl)[C@@H]3C)n1 | % | 3
C[C@@H]1c2nnn(-c3ncc(F)cn3)c2CCN1C(=O)c1cccc(C(F)(F)F)c1Cl [JNJ-54175446] | % | 96

###

Assay: Drug excretion in Sprague-Dawley rat at 1 mg/kg, iv or 5 mg/kg, po by LC-MS/MS analysis
Type: ADME, organism-based
Conditions: in vivo, read-out: Drug excretion

ENTRY SMILES | dose excreted / %
C[C@@H]1c2nnn(-c3ncccn3)c2CCN1C(=O)c1cccc(C(F)(F)F)c1Cl | 0.4
